test: Growth inhibition of human MALME 3M cells after 48 hrs by SRB protein assay; assay type: functional; conditions: read-out: Log TGI (converted)
// NB: equality with 30 µM counts as Not met; only TGI strictly below is Met

Data request: Could you please tell me whether TGI recorded for O=C(CC1Sc2ncnn2C1=O)Nc1ccc(Br)cc1 (stereo unspecified) is less than 30 µM?
Data returned: Not met

Data request: Check if TGI falls below 30 µM for O=c1/c(=C/c2ccc(F)cc2)sc2ncnn12 .
Data returned: Not met

Data request: Does O=C(CC1Sc2ncnn2C1=O)Nc1ccccc1 (stereo unspecified) have TGI strictly under 30 µM?
Data returned: Not met

Data request: Input O=c1/c(=C/c2ccc(Cl)cc2)sc2ncnn12 ; condition: TGI strictly below 30 µM. Does it hold?
Data returned: Met

Data request: TGI strictly < 30 µM for this compound? O=C(CC1Sc2ncnn2C1=O)Nc1ccc(Cl)cc1 (stereo unspecified)
Data returned: Not met

Data request: Here's an entry: COc1ccc(NC(=O)CC2Sc3ncnn3C2=O)cc1 (stereo unspecified) . Is its TGI below 30 µM?
Data returned: Not met
